B1: TTC32 (parent)
chain: YSAYIRRCACAASSDESPGSKCSP

Variants of: B1
PROTOCOL: protein stability index of a GFP-peptide fusion (GPS, HEK-293T) (PSI 1-6); higher = more stable;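 further: lentivirally expressed fusions sorted by FACS into six bins by GFP to DsRed ratio, PSI derived from sequencing read proportions per bin multiplied by bin number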
TEST_CONDITIONS: c terminus: a fixed tail appended
Reported protein stability index values are given for each entry in this list.
Answer as a number with no unit attached.

- YSACIRRCACAASSDESPGSKCSP [Y4C]: 2.4
- YSAYIRRCACAASSDESPGSGCSP [K21G]: 2.02
- YSAYIRRCNCAASSDESPGSKCSP [A9N]: 2.37
- YSAYIRRCACAASSDESPGSTCSP [K21T]: 1.69
- GSAYIRRCACAASSDESPGSKCSP [Y1G]: 2.48
- YSAYIRRCACAALSDESPGSKCSP [S13L]: 1.69
- YSAKIRRCACAASSDESPGSKCSP [Y4K]: 2.5
- YSAYIRRCACAASSDESVGSKCSP [P18V]: 2.07

**Query** Provide one value: measured protein stability index of YSAYIRRCRCAASSDESPGSKCSP [A9R]
**Result** 2.66

**Query** Provide one value: measured protein stability index of YSAYIRRCACAASSDESPGLKCSP [S20L]
**Result** 2.15

**Query** Provide one value: measured protein stability index of YSAYDRRCACAASSDESPGSKCSP [I5D]
**Result** 3.16
